molecular target: EF-Tu•GTP R318K (Escherichia coli, UniProt P0CE47, R319K); experiment: MST binding assay, EF-Tu R318K mutant
Observed Property: Kd (nM)

Molecule	Result Value
CCCn1nnnc1NC(=O)c1cccc(Cl)c1 [KKL-55]	2600

* * *

target: EF-Tu•GTP H319A (Escherichia coli, UniProt P0CE47, H320A); test: MST binding assay, EF-Tu H319A mutant
Observed Property: Kd (nM)

Compound	Experimental System	Observed Property	Result Value
CCCn1nnnc1NC(=O)c1cccc(Cl)c1 [KKL-55]	EF-Tu•GTP H319A (Escherichia coli, UniProt P0CE47, H320A)	Kd	2400

* * *

target: E. coli EF-Tu•GTP (Escherichia coli, UniProt P0CE47)
pKd: −log10 of the molar value.

Compound	Experimental System	pKd
CCCn1nnnc1NC(=O)c1cccc(Cl)c1 [KKL-55]	E. coli EF-Tu•GTP (Escherichia coli, UniProt P0CE47)	5.70
